Recorded IC50 for the following molecules
assay.target: GHSR-1a (HEK293/GHSR1a cell line) (Homo sapiens)
Construct: expressed in transfected cells; host or cells: HEK293/GHSR1a cell line
Sequence (Q92847 whole entry): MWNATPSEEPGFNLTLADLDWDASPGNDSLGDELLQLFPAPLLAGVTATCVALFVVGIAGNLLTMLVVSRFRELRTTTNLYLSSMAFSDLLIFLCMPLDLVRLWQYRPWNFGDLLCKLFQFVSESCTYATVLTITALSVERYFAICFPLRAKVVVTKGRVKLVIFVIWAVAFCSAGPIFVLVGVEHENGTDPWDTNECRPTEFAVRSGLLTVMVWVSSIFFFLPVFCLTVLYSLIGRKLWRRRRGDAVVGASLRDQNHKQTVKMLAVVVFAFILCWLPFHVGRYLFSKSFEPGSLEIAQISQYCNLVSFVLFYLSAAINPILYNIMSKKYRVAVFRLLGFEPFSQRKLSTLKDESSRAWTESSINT
method.description: Ghrelin antagonist potency (IC50) with calcium FLIPR assay, ghrelin 10 nM
Assay type: cell-based
run.parameters: HEK293/GHSR1a, ghrelin 10 nM, read-out: Activity IC50 (ghrelin antagonist potency)
Your answer should be a plain number; it is taken to be in nM.

The measured IC50 associated with `C[C@@H](NC(=O)Nc1ccc(S(=O)(=O)Cc2cc(F)c3c(c2)CN(C)C3)cc1)c1ccccc1` reads 41

###

method.description: Animal PK study in mouse via i.v., p.o. and s.c. administration
Format: in vivo
run.parameters: p.o.
// thresholds for PK CLpo classes: low band = under 500 mL/min/kg, middle band = from 500 mL/min/kg up to 6000 mL/min/kg, high band = 6000 mL/min/kg and over

Example entries and their recorded answers appear below.
{"structure.as.smiles": "COc1ccc([C@H](C)NC(=O)Nc2ccc(S(=O)(=O)Nc3ccc4c(c3)CCNC4)cc2)c(Cl)c1Cl.Cl", "discrete.label": "middle band"}
{"structure.as.smiles": "O=C(NCc1ccccc1Cl)Nc1ccc(S(=O)(=O)Cc2ccc3c(c2)CCNC3)cc1", "discrete.label": "middle band"}
{"structure.as.smiles": "C[C@H](NC(=O)Nc1ccc(S(=O)(=O)Nc2ccc(CC(C)(C)N)cc2)cc1)c1ccc(-c2cnccn2)c(Cl)c1Cl", "discrete.label": "middle band"}
{"structure.as.smiles": "C[C@H](NC(=O)Nc1ccc(S(=O)(=O)Nc2ccc(CC(C)(C)N(C)C)cc2)cc1)c1cccc(Cl)c1Cl", "discrete.label": "high band"}
{"structure.as.smiles": "C[C@H](NC(=O)Nc1ccc(S(=O)(=O)Cc2ccc(CO)cc2)cc1)c1cccc(Cl)c1Cl", "discrete.label": "low band"}

Query string: Which bin, given its PK CLpo, does `C[C@H](NC(=O)Nc1ccc(S(=O)(=O)Cc2ccc3c(c2)CCN(C)C3)cc1)c1cccc(Cl)c1Cl` occupy?
Result string: low band

Query string: Entry `CC(C)(N)Cc1ccc(NS(=O)(=O)c2ccc(NC(=O)NCc3ccccc3)cc2)cc1.Cl` belongs to which category?
Result string: high band

Query string: Class for `C[C@H](NC(=O)Nc1ccc(S(=O)(=O)Cc2ccc(CC(C)(C)N)cc2)cc1)c1cccc(Cl)c1Cl` ?
Result string: low band

Query string: Using the reported PK CLpo, which band applies to `C[C@H](NC(=O)Nc1ccc(S(=O)(=O)Cc2ccc(CC(C)(C)N(C)C)cc2)cc1)c1cccc(Cl)c1Cl` ?
Result string: middle band
